Where do these numbers come from? They come from patent US11807625B2.

assay-explanation: PK of compound of Formula (Ia) after single subcutaneous dose of solution formulations in Wistar Han rats
Type: in vivo
test-conditions: male, Wistar Han, rat, plasma, sc, 50 mg/kg, Wistar Han rats, SC 50 mg/kg, 400 mg/mL solution Z (3.13% poloxamer 188), 2688 h, animals #1-#4
property: concentration at 2688 h (nM)
Kindly provide the numeric value in nM only, without the unit symbol.

The compound listed as "CC(C)(C#Cc1ccc(-c2ccc(Cl)c3c(NS(C)(=O)=O)nn(CC(F)(F)F)c23)c([C@H](Cc2cc(F)cc(F)c2)NC(=O)Cn2nc(C(F)(F)F)c3c2C(F)(F)[C@@H]2C[C@H]32)n1)S(C)(=O)=O" shows concentration at 2688 h equal to 118
